- Assay Info: reversal of MRP1-mediated doxorubicin resistance, pilot screen, H69AR cells, doxorubicin co-treatment (AID 601)
- Settings: H69AR cells + 2 uM doxorubicin, CellTiter-Glo, 72 h; measured here: viability with 2 uM doxorubicin; at 10 µM; stronger effect = lower value
Listed next: entries and their corresponding viability.
Give just the number in %; leave the unit off.

Use the examples below as a reference point.
- Input Smiles: "Cc1cc(C(=O)CSc2nnc(-c3ccccc3)n2C)c(C)n1C"
  Output Unit: "%"
  viability: 98.5
- Input Smiles: "O=C(CCNNC(=O)c1ccncc1)NCc1ccccc1"
  Output Unit: "%"
  viability: 87
- Input Smiles: "COc1ccc(S(=O)(=O)NCc2ccc(C(=O)O)cc2)cc1"
  Output Unit: "%"
  viability: 106
- Input Smiles: "O=C(CCCCn1c(=O)[nH]c2ccsc2c1=O)NCc1cccnc1"
  Output Unit: "%"
  viability: 97.1
- Input Smiles: "COC(=O)c1ccccc1NC(=O)COc1ccc(S(=O)(=O)N2CCCC2)cc1C"
  Output Unit: "%"
  viability: 66.4

With those in mind, consider the next compound.
Task: Entry `CCc1nnc(-n2nc(C)cc2-c2ccccc2)n1N` : reported viability = ?
Result: 90.7

====

- Assay Info: reducers of endogenous Her2 protein level, primary screen, SKBR3 breast tumor cells, AlphaScreen, ATP viability (AID 461);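 also: percent of carrier control wells set as 100% viability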
- Settings: 18-24 h, measured here: SKBR3 viability, ATP luminescence, at 10 µM
// NB: equality with 90% counts as criterion not met; only viability strictly below is criterion met

Task: Take the compound `CCSc1nc2c(c(=O)n(C)c(=O)n2C)n1Cc1ccc(Cl)cc1` and say whether its viability is less than 90%.
Result: criterion met

Task: Subsequent entry: `O=C(CSc1nc2ccccc2nc1SCC(=O)N1CCOCC1)N1CCOCC1`
Result: criterion not met

Task: Subsequent entry: `O=C(CCCn1c(=S)[nH]c2cc3c(cc2c1=O)OCO3)N1CCN(c2ccccc2F)CC1`
Result: criterion met

Task: Subsequent entry: COc1cccc(C2CC(c3ccccc3)n3ncnc3N2)c1 (stereo not given)
Result: criterion met

====

- Assay Info: reversal of MRP1-mediated doxorubicin resistance, pilot screen, H69AR cells, doxorubicin co-treatment (AID 601)
- Settings: H69AR cells, CellTiter-Glo, 72 h; compound alone cytotoxicity; at 10 µM
// NB: equality with 80% counts as rule not met; only viability strictly below is rule met

Some solved entries appear below for comparison.
- Compound: "Cc1cccc(Nc2ncc3c(n2)CC(c2ccco2)CC3=O)c1 (configuration not stated)"
  Group Label: "rule met"
- Compound: "O=C(NCC1CCCO1)c1ccc(N2CCCCC2)nc1 (configuration not stated)"
  Group Label: "rule not met"
- Compound: "O=C(Nc1cccc2ncccc12)c1ccc2c(c1)OCCO2"
  Group Label: "rule not met"
- Compound: "CCCN(CCC)S(=O)(=O)c1ccc(C(=O)O)cc1"
  Group Label: "rule not met"
- Compound: "COc1cc2c3c(c1)/C(=C1/SC(NC(C)=O)=NC1=O)C(=O)N3C(C)(C)C=C2C"
  Group Label: "rule met"

Task: Take the compound CN=c1sc2ccccc2n1CC(O)COCc1ccco1 (configuration not stated) and say whether its viability is less than 80%.
Result: rule not met

Task: Subsequent entry: `CCOC(=O)c1cc(C(C)(C)C)oc1CN`
Result: rule not met

Task: Subsequent entry: `CCSC(SCC)[C@H](O)[C@@H](O)[C@H](O)[C@H](O)CO`
Result: rule not met

Task: Subsequent entry: `COc1ccccc1-n1nnnc1SCc1cc2c(cc1Br)OCO2`
Result: rule met

Task: Subsequent entry: `COc1ccccc1-n1cnc2cc(NS(=O)(=O)c3ccccc3)ccc21`
Result: rule not met

Task: Subsequent entry: `COc1ccc(S(=O)(=O)Nc2ccccc2OC)cc1C`
Result: rule not met

Task: Subsequent entry: `CCCC(=O)Nc1ccc(OCC(=O)OC)cc1`
Result: rule not met
